Could you please report measured Kd for the items listed next?
target of assay: T1, His-tagged MRP-14 (myeloid related protein 14) (human, UniProt P06702 1-114)
T1 sequence: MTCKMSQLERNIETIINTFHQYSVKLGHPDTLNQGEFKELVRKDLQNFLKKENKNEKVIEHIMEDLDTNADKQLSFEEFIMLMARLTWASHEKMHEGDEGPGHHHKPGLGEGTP
protocol: SPR
Bridges are numbered along the chain shown (N, C = ends). Where no end group is shown, it is not given here.
Enter your answer as a number in µM; do not include the unit.

Input line: // Kd lookup, key: HNHMADPGGGS-NH2 [MTP3 synthetic peptide with GGGS spacer]
Output line: 117

Input line: Kd for ACNSHRHGACGGGS-NH2 (disulfide 2-10 (inferred)) [MTP5 synthetic peptide with GGGS spacer] ?
Output line: 67.6

Input line: For ACNSVHQHHCGGGS [MTP6 synthetic peptide with GGGS spacer] , what is its reported Kd?
Output line: 39.6

Cited source for all entries: paper PMC9679916
